target of assay: RET (Homo sapiens)
Sequence (P07949 29-1114): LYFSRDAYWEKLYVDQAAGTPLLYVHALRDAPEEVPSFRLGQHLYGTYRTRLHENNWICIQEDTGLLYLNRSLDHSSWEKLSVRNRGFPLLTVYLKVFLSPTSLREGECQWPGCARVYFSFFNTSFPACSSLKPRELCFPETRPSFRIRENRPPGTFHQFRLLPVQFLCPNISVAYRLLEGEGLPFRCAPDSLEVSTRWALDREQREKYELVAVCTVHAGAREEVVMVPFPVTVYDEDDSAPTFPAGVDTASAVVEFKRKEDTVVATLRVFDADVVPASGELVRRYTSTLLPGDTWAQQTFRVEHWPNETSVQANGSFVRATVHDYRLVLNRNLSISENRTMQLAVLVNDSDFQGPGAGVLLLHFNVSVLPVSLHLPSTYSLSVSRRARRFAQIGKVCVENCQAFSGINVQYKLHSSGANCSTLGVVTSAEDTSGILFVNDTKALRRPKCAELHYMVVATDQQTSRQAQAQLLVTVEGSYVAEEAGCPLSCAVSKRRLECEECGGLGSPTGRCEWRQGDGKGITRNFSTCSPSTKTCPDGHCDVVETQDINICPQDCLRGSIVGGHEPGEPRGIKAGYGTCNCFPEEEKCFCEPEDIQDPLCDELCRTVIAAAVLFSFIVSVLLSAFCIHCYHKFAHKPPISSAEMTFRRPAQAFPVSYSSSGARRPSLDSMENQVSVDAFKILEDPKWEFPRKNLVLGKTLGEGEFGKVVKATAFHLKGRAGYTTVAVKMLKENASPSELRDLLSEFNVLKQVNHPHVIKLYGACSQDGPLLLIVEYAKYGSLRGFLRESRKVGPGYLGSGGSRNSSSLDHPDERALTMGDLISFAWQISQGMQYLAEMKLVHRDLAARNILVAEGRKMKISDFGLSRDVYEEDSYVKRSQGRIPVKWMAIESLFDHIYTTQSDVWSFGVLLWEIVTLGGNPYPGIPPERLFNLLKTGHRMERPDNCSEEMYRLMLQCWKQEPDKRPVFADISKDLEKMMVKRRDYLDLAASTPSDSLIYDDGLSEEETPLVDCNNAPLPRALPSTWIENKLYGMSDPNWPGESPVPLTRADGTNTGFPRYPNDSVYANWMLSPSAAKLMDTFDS
pKd: −log10 of the molar value.
property measured: pKd

1) COc1ccc(-c2cncc(N[C@@H](C)c3cccc(NC(=O)c4cncc(C)c4)c3)n2)cc1OC: 7.72

----------
target of assay: PIK4CB (Homo sapiens, UniProt Q9UBF8)
Sequence (Q9UBF8 whole entry): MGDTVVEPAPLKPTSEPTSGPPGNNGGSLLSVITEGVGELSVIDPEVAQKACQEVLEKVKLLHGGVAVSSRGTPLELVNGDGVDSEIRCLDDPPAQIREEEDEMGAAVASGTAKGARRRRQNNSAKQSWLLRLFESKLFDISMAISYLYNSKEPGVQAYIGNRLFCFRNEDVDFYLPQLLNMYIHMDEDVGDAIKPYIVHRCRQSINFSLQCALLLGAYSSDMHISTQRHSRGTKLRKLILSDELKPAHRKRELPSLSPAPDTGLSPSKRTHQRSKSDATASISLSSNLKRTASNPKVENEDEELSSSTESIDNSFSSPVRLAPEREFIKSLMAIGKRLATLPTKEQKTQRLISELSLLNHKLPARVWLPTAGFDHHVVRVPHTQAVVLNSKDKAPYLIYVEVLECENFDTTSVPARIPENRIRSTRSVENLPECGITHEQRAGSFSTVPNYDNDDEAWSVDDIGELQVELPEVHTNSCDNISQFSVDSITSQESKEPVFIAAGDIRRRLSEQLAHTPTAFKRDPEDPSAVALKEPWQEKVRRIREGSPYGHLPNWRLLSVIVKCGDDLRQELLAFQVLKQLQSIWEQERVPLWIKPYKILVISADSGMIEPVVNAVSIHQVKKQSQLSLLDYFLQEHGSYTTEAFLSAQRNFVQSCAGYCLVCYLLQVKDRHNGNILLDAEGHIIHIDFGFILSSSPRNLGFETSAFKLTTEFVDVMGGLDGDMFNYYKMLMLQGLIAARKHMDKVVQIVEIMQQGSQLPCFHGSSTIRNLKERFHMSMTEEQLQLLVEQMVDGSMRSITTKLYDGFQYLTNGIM
pKd: −log10 of the molar value.
property measured: pKd

1) COc1ccc(-c2cncc(N[C@@H](C)c3cccc(NC(=O)c4cncc(C)c4)c3)n2)cc1OC [Compound B]: 6.82

----------
target of assay: UniProtKB P42685
Sequence (P42685 whole entry): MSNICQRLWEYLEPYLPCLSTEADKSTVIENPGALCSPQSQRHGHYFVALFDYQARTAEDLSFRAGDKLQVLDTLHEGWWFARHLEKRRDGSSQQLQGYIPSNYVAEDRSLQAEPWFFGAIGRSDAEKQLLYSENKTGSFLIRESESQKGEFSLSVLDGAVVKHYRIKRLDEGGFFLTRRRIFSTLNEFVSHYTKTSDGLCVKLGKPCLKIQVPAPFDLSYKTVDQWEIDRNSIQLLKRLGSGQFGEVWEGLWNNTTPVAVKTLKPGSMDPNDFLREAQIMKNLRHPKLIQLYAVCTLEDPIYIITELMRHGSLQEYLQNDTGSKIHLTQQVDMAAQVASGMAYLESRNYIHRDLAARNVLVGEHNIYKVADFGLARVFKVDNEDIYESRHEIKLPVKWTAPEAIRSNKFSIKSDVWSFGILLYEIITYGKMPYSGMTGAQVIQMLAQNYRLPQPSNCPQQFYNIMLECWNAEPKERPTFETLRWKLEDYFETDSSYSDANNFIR
property measured: Kd (µM)

1) COc1ccc(-c2cncc(N[C@@H](C)c3cccc(NC(=O)c4cncc(C)c4)c3)n2)cc1OC [Compound B]: 0.011

From: patent US20200360477A1
